Recorded ΔTm at 150 µM by entry
# tested_on: WT STING (truncated human WT STING protein) (Homo sapiens, UniProt Q86WV6, H232R)
# Construct: truncated human WT STING or AQ STING (amino acid residues 140-343); 8xHis (N, cleaved yes); SUMO (N, cleaved yes); made in house; host or cells: E. coli Rosetta-gami B (DE3)
# Sequence (Q86WV6 140-343 H232R): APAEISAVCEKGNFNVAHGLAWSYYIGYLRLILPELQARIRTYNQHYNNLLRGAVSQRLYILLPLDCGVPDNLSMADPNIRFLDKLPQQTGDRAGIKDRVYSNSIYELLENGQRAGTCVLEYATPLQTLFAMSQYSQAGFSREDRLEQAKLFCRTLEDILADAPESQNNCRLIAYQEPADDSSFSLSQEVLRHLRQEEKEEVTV
# experimental_protocol: Differential Scanning Fluorimetry with WT STING
# Type: binding
# reported_conditions: thermal shift vs apoprotein; 150 μM CDN; 0.1 mg/ml STING protein; SYPRO Orange; read-out: DSF ΔTm (° C.) WT STING

{"chemical_string": "Nc1ncnc2c1ncn2[C@@H]1O[C@@H]2COP(=O)(O)O[C@@H]3[C@H](F)[C@@H](COP(=O)(O)CO[C@H]2[C@H]1F)O[C@H]3n1cnc2c(=O)[nH]cnc21", "ΔTm at 150 µM": "20.4 °C"}
{"chemical_string": "Nc1ncnc2c1ncn2[C@@H]1O[C@@H]2COP(=O)(O)O[C@@H]3[C@H](O)[C@@H](COP(=O)(O)CO[C@H]2[C@H]1O)O[C@H]3n1cnc2c(N)ncnc21", "ΔTm at 150 µM": "3 °C"}
{"chemical_string": "Nc1nc2c(ncn2[C@@H]2O[C@@H]3COP(=O)(O)O[C@H]4[C@@H](F)[C@H](n5cnc6c(N)ncnc65)O[C@@H]4COP(=O)(O)CO[C@@H]2[C@@H]3O)c(=O)[nH]1", "ΔTm at 150 µM": "7.3 °C"}
{"chemical_string": "Nc1ncnc2c1ncn2[C@@H]1O[C@@H]2COP(=O)(O)CO[C@@H]3[C@H](O)[C@@H](COP(=O)(O)O[C@H]2[C@H]1O)O[C@H]3n1cnc2c(N)ncnc21", "ΔTm at 150 µM": "0.2 °C"}
{"chemical_string": "Nc1nc(N)c2ncn([C@@H]3O[C@@H]4COP(=O)(O)CO[C@H]5[C@@H](O)[C@H](n6cnc7c(N)ncnc76)O[C@@H]5COP(=O)(O)O[C@@H]3[C@@H]4F)c2n1", "ΔTm at 150 µM": "10.6 °C"}
{"chemical_string": "Nc1nc(N)c2ncn([C@@H]3O[C@@H]4COP(=O)(O)O[C@@H]5[C@H](O)[C@@H](COP(=O)(O)CO[C@H]4[C@H]3F)O[C@H]5n3cnc4c(N)ncnc43)c2n1", "ΔTm at 150 µM": "2.1 °C"}
{"chemical_string": "Nc1nc2c(ncn2[C@@H]2O[C@@H]3COP(=O)(O)CO[C@H]4[C@@H](F)[C@H](n5cnc6c(N)ncnc65)O[C@@H]4COP(=O)(O)O[C@@H]2[C@@H]3F)c(=O)[nH]1", "ΔTm at 150 µM": "21.7 °C"}
{"chemical_string": "Nc1nc2c(ncn2[C@@H]2O[C@@H]3COP(=O)(O)CO[C@H]4[C@@H](O)[C@H](n5cnc6c(N)ncnc65)O[C@@H]4COP(=O)(O)O[C@@H]2[C@@H]3F)c(=O)[nH]1", "ΔTm at 150 µM": "18.2 °C"}
{"chemical_string": "Nc1nc2c(ncn2[C@@H]2O[C@@H]3COP(=O)(O)CO[C@@H]4[C@H](O)[C@@H](COP(=O)(O)O[C@H]3[C@H]2O)O[C@H]4n2cnc3c(N)ncnc32)c(=O)[nH]1", "ΔTm at 150 µM": "0.1 °C"}
{"chemical_string": "Nc1ncnc2c1ncn2[C@@H]1O[C@@H]2COP(=O)(O)CO[C@H]3[C@H](O)[C@@H](COP(=O)(O)CO[C@H]2[C@@H]1O)O[C@H]3n1cnc2c(N)ncnc21", "ΔTm at 150 µM": "0 °C"}
